pKi: −log10 of the molar value.
Parameter pKi, tested on ORL-1 receptor (Homo sapiens, UniProt P41146), listed per item.
Sequence (P41146 whole entry): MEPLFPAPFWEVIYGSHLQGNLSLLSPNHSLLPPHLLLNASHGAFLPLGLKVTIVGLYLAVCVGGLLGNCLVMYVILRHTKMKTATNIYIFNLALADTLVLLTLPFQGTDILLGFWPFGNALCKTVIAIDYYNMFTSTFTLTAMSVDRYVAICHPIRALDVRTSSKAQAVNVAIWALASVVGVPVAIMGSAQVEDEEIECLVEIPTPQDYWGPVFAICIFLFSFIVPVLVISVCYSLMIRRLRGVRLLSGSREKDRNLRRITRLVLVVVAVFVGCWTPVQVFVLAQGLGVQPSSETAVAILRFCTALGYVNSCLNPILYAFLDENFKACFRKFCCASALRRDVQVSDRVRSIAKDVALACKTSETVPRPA

Compound | Tgt | pKi
COC1(c2ncccn2)CC2CCC(C1)N2C(c1ccccc1Cl)c1ccccc1Cl (stereo not shown) | ORL-1 receptor (Homo sapiens, UniProt P41146) | 8.27
OC1(c2ccccn2)CC2CCC(C1)N2C(c1ccccc1Cl)c1ccccc1Cl (stereo not shown) | ORL-1 receptor (Homo sapiens, UniProt P41146) | 8.40
OC1(c2nccc(N3CCNCC3)n2)CC2CCC(C1)N2C(c1ccccc1Cl)c1ccccc1Cl (stereo not shown) | ORL-1 receptor (Homo sapiens, UniProt P41146) | 8.40
Cn1nccc1C1(O)CC2CCC(C1)N2C(c1ccccc1Cl)c1ccccc1Cl (stereo not shown) | ORL-1 receptor (Homo sapiens, UniProt P41146) | 8.22

###

Parameter pKi, tested on ORL-1 receptor (Homo sapiens), listed per item.
pKi: −log10 of the molar value.

Compound | pKi
CCc1cnc(C2(O)CC3CCC(C2)N3C(c2ccccc2Cl)c2ccccc2Cl)nc1 (stereo not shown) | 8.12
OC1(c2ccc(Br)cn2)CC2CCC(C1)N2C(c1ccccc1Cl)c1ccccc1Cl (stereo not shown) | 8.89
OC1(c2cnccn2)CC2CCC(C1)N2C(c1ccccc1Cl)c1ccccc1Cl (stereo not shown) | 8.70
OC1(c2cccnn2)CC2CCC(C1)N2C(c1ccccc1Cl)c1ccccc1Cl (stereo not shown) | 8.15
